Kindly state SGCB cell-surface expression functional score (log10) for each of the entries shown.
B1: library; numbered along this chain (parent)
chain: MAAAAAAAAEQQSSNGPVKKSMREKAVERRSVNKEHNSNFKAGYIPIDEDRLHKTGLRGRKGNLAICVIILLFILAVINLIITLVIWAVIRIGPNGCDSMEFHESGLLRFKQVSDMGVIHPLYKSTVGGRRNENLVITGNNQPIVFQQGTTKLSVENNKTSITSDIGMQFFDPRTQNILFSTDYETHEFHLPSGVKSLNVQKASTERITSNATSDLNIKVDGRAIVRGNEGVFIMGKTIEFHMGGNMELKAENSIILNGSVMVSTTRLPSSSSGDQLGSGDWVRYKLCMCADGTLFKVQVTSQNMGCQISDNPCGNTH

# Variants of: B1
# Test name: SGCB cell-surface expression functional score (HA stain, bin4 vs bin1, normalised to synonymous) (log10 ratio); higher = more cell-surface SGCB (functional)
Returns: the value as a bare number; no unit string appended.

Identify the reported SGCB cell-surface expression functional score (log10) for the following entry. H103N
0.13

Identify the reported SGCB cell-surface expression functional score (log10) for the following entry. F180R
-1.76

Identify the reported SGCB cell-surface expression functional score (log10) for the following entry. H120A
-0.12

Identify the reported SGCB cell-surface expression functional score (log10) for the following entry. N312F
0.03

Identify the reported SGCB cell-surface expression functional score (log10) for the following entry. L80C
0.66

Identify the reported SGCB cell-surface expression functional score (log10) for the following entry. N39H
-0.1

Identify the reported SGCB cell-surface expression functional score (log10) for the following entry. N246M
0.42

Identify the reported SGCB cell-surface expression functional score (log10) for the following entry. H187T
-1.03

Identify the reported SGCB cell-surface expression functional score (log10) for the following entry. G149E
-0.93

Identify the reported SGCB cell-surface expression functional score (log10) for the following entry. C307I
-1.65

Identify the reported SGCB cell-surface expression functional score (log10) for the following entry. P143C
0.07

Identify the reported SGCB cell-surface expression functional score (log10) for the following entry. N304E
0.56

Identify the reported SGCB cell-surface expression functional score (log10) for the following entry. A2S
0.14

Identify the reported SGCB cell-surface expression functional score (log10) for the following entry. F233K
0.34

Identify the reported SGCB cell-surface expression functional score (log10) for the following entry. N157F
-0.21

Identify the reported SGCB cell-surface expression functional score (log10) for the following entry. G228F
-0.64

Identify the reported SGCB cell-surface expression functional score (log10) for the following entry. M289H
-0.85

Identify the reported SGCB cell-surface expression functional score (log10) for the following entry. S273F
-1.31

Identify the reported SGCB cell-surface expression functional score (log10) for the following entry. T175Y
0.07

Identify the reported SGCB cell-surface expression functional score (log10) for the following entry. P17F
0.2

Identify the reported SGCB cell-surface expression functional score (log10) for the following entry. A42R
-0.08

Identify the reported SGCB cell-surface expression functional score (log10) for the following entry. D281T
-0.28

Identify the reported SGCB cell-surface expression functional score (log10) for the following entry. A2L
0.2

Identify the reported SGCB cell-surface expression functional score (log10) for the following entry. D98Q
-0.02

Identify the reported SGCB cell-surface expression functional score (log10) for the following entry. W87M
0.4

Identify the reported SGCB cell-surface expression functional score (log10) for the following entry. W282E
-0.07

Identify the reported SGCB cell-surface expression functional score (log10) for the following entry. Q176W
-0.21

Identify the reported SGCB cell-surface expression functional score (log10) for the following entry. Y123A
0.29

Identify the reported SGCB cell-surface expression functional score (log10) for the following entry. G245A
0.6

Identify the reported SGCB cell-surface expression functional score (log10) for the following entry. C314I
-0.11

Identify the reported SGCB cell-surface expression functional score (log10) for the following entry. T213C
-0.94

Identify the reported SGCB cell-surface expression functional score (log10) for the following entry. R51I
0.36

Identify the reported SGCB cell-surface expression functional score (log10) for the following entry. E28V
0.15

Identify the reported SGCB cell-surface expression functional score (log10) for the following entry. M262T
0.19

Identify the reported SGCB cell-surface expression functional score (log10) for the following entry. M305V
-0.22
